B1: ZNF232 (parent)
chain: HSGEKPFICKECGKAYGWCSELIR

# Variants of: B1
# experimentDescription: protein stability index of a GFP-peptide fusion (GPS, HEK-293T) (PSI 1-6); higher = more stable;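 further: lentivirally expressed fusions sorted by FACS into six bins by GFP to DsRed ratio, PSI derived from sequencing read proportions per bin multiplied by bin number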
# experimentalParameters: c terminus: a fixed tail appended
The variants listed here are annotated with their protein stability index.
Reply: number alone, nothing else.

Sample answers from the record:
| variantSpec | protein stability index |
| --- | --- |
| K10M | 1.96 |
| C12W | 2.18 |
| W18I | 2.46 |
| W18G | 2.43 |
| H1R | 2.45 |
| E4Y | 1.81 |
| E11D | 1.88 |
| P6E | 2.37 |
| P6C | 2.45 |
| L22G | 2 |

// recorded protein stability index for K10F : 1.9

What the record says about C19T : protein stability index is 2.09

// protein stability index lookup, variant = G3E , result: 2.29
